- system: PSMA-expressing C4-2 cells (Homo sapiens, UniProt Q04609)
- Construct: PSMA-expressing C4-2 cells (ATCC, Cat. No. CRL-3314) were cultured in RPMI-1640; host or cells: C4-2 cells
- Sequence (Q04609 whole entry): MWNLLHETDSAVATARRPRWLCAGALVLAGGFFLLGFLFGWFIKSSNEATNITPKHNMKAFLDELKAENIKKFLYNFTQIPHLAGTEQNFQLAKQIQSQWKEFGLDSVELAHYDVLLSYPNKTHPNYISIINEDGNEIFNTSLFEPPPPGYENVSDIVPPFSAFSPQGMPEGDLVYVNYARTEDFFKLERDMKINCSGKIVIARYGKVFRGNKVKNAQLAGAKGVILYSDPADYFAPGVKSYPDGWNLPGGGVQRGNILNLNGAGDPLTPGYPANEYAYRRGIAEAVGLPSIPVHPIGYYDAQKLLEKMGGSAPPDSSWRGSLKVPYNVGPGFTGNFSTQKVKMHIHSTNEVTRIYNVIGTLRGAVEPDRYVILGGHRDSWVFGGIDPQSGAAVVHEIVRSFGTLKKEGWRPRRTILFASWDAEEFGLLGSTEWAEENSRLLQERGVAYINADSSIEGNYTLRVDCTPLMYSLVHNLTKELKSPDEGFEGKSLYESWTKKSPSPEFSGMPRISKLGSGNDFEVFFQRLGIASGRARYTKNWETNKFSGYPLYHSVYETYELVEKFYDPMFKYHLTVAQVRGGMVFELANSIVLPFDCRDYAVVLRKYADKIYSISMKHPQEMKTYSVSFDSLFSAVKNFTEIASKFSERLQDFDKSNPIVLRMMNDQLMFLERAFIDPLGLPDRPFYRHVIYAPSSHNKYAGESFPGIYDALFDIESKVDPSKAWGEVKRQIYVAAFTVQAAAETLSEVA
- protocol details: FACS binding assay (competition with 50 nM PSM-0183)
- condition context: FACS binding, C4-2 cells, competition with 50 nM PSM-0183; category; read-out: pIC50 [C4-2] CAT (converted)
Numbered stars: 1 amine (or outer) side, 2 acyl side, 3 side chain; on linkers, the order of the positions; unused ones are H or OH. Bridge positions count the residues as written; N and C are the ends. Square brackets hold non-standard residues; d marks the D form. Peptide text beside a SMILES is read from it. * marks the point of attachment. DOTA = O=C(O)CN1CCN(CC(=O)O)CCN(CC(=O)*)CCN(CC(=O)O)CC1; Phe(4-Cl) = N[C@@H](Cc1ccc(Cl)cc1)C(=O)O; X4 = O=C(CN1CCC(N[*:1])CC1)[*:2]; Tle = CC(C)(C)[C@H](N)C(=O)O; Aib = CC(C)(N)C(=O)O; βAla = NCCC(=O)O
attribute measured: IC50

compound	measurement
C[C@@H](O)[C@H](NC(=O)CN1CCN(CC(=O)O)CCN(CC(=O)O)CCN(CC(=O)O)CC1)C(=O)NC(C)(C)C(=O)N[C@@H](Cc1ccc(Cl)cc1)C(=O)N[C@H]1CSSC[C@@H](C(=O)N[C@H](C(=O)NCCC(N)=O)C(C)(C)C)NC(=O)[C@H](CC(N)=O)NC(=O)C(C)(C)NC(=O)[C@H](CCCNC(=N)N)NC(=O)[C@H](CCCCN)NC1=O [PSM-0216] ({DOTA}-T[Aib][Phe(4-Cl)]CKR[Aib]NC[Tle][βAla]-NH2; disulfide 4-9)	< 200 nM

Continue with the compound presented below.
// query Given CC(=O)N[C@H](C(=O)NC(C)(C)C(=O)N[C@@H](Cc1ccccc1)C(=O)N[C@H]1CSSC[C@@H](C(=O)N[C@H](C(=O)N[C@H](C(=O)NC2CCN(CC(=O)N[C@H](CCCCNC(=O)CN3CCN(CC(=O)O)CCN(CC(=O)O)CCN(CC(=O)O)CC3)C(N)=O)CC2)[C@@H](C)O)C(C)(C)C)NC(=O)[C@H](CC(N)=O)NC(=O)C(C)(C)NC(=O)[C@H](CCCNC(=N)N)NC(=O)[C@H](CCCCN)NC1=O)[C@@H](C)O [PSM-0191] (Ac-T[Aib]FCKR[Aib]NC[Tle]T[X4][dK](DOTA)-NH2; disulfide 4-9) , state its recorded IC50.
// result < 200 nM

###

- system: Fc-fusion protein of human PSMA (hPSMA-Fc) (Homo sapiens, UniProt Q04609)
- Construct: purchased Acro Biosystems PSA-H5264
- Sequence (Q04609 44-750 limits assumed): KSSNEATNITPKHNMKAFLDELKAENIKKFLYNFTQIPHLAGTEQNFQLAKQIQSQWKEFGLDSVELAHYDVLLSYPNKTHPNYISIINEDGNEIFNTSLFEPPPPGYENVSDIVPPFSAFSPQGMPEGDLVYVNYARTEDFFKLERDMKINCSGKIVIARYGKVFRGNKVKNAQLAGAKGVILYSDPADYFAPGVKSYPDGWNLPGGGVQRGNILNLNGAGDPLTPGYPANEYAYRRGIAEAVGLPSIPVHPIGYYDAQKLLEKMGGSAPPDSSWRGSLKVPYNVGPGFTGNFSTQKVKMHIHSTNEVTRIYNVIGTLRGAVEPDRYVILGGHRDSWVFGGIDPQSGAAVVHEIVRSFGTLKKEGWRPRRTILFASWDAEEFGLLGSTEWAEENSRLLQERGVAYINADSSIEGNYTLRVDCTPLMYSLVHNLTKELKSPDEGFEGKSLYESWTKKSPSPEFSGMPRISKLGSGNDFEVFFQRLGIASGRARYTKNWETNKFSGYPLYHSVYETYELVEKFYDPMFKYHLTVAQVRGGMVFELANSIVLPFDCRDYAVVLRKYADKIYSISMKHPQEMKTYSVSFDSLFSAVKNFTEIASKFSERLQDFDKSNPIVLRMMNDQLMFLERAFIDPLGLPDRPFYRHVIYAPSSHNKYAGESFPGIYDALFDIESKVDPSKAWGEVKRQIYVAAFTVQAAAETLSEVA
- protocol details: Surface plasmon resonance assay (Biacore T200, single cycle kinetic)
- Type: binding
- condition context: PSMA SPR assay, category; read-out: pKD CAT (converted)
Numbered stars: 1 amine (or outer) side, 2 acyl side, 3 side chain; on linkers, the order of the positions; unused ones are H or OH. Bridge positions count the residues as written; N and C are the ends. Square brackets hold non-standard residues; d marks the D form. Side chains are listed from the residue outwards. Peptide text beside a SMILES is read from it. * marks the point of attachment. TtdsdLys(DOTA)NH2 = NC(=O)[C@@H](CCCCNC(=O)CN1CCN(CC(=O)O)CCN(CC(=O)O)CCN(CC(=O)O)CC1)NC(=O)CCC(=O)NCCCOCCOCCOCCCN*; X11 = O=C(CCCC[C@@H]1SC[C@@H]2NC(=O)N[C@@H]21)NCCCOCCOCCOCCCNC(=O)CCC(=O)NCCCOCCOCCOCCCN*; DO3AM = NC(=O)CN1CCN(CC(N)=O)CCN(CC(=O)*)CCN(CC(N)=O)CC1; DOTA = O=C(O)CN1CCN(CC(=O)O)CCN(CC(=O)*)CCN(CC(=O)O)CC1; Phe(3-Cl) = N[C@@H](Cc1cccc(Cl)c1)C(=O)O; Phe(4-Cl) = N[C@@H](Cc1ccc(Cl)cc1)C(=O)O; Arg(Me) = CNC(=N)NCCC[C@H](N)C(=O)O; X1 = O=C(CC1CCN([*:1])CC1)[*:2]; Lys(Me) = CNCCCC[C@H](N)C(=O)O; NMeN = CN[C@@H](CC(N)=O)C(=O)O; Suc = O=C(CCC(=O)[*:2])[*:1]; Tle = CC(C)(C)[C@H](N)C(=O)O; Nle = CCCC[C@H](N)C(=O)O; Hexanoyl = CCCCCC(=O)*; Aib = CC(C)(N)C(=O)O; CO = O=C([*:1])[*:2]; CH2 = C([*:1])[*:2]
Please provide measured Kd for the entries that follow.

Answered cases to consult:
molecule	measurement
CCNC(=O)NC(=N)NCCC[C@@H]1NC(=O)[C@H](CCCCN)NC(=O)[C@@H](NC(=O)[C@H](Cc2ccc(Cl)cc2)NC(=O)C(C)(C)NC(=O)[C@@H](NC(=O)CC2CCN(C(=O)CN3CCN(CC(=O)O)CCN(CC(=O)O)CCN(CC(=O)O)CC3)CC2)[C@@H](C)O)CSSC[C@@H](C(=O)N[C@H](C(=O)N[C@H](C(N)=O)[C@@H](C)O)C(C)(C)C)NC(=O)[C@H](CC(N)=O)NC(=O)C(C)(C)NC1=O [PSM-0579] ({DOTA}-[X1]T[Aib][Phe(4-Cl)]CKR([CO-NHEt])[Aib]NC[Tle]T-NH2; disulfide 5-10)	< 12.6 nM
C[C@@H](O)[C@H](NC(=O)[C@@H](NC(=O)[C@@H]1CSSC[C@H](NC(=O)[C@H](Cc2cccc(Cl)c2)NC(=O)C(C)(C)NC(=O)[C@@H](NC(=O)CC2CCN(C(=O)CN3CCN(CC(=O)O)CCN(CC(=O)O)CCN(CC(=O)O)CC3)CC2)[C@@H](C)O)C(=O)N[C@@H](CCCCN)C(=O)N[C@@H](CCCNC(=N)N)C(=O)NC(C)(C)C(=O)N[C@@H](CC(N)=O)C(=O)N1)C(C)(C)C)C(N)=O [PSM-0583] ({DOTA}-[X1]T[Aib][Phe(3-Cl)]CKR[Aib]NC[Tle]T-NH2; disulfide 5-10)	< 12.6 nM
CCCC[C@H](NC(=O)[C@@H]1CSSC[C@H](NC(=O)[C@H](Cc2ccccc2)NC(=O)[C@H](C)NC(=O)[C@@H](NC(C)=O)[C@@H](C)O)C(=O)N[C@@H](CCCCN)C(=O)N[C@@H](CCCNC(=N)N)C(=O)NC(C)(C)C(=O)N[C@@H](CC(N)=O)C(=O)N1)C(=O)N[C@H](C(=O)N[C@@H](CC(=O)O)C(N)=O)[C@@H](C)O [PSM-0578] (Ac-TAFCKR[Aib]NC[Nle]TD-NH2; disulfide 4-9)	12.6 to 126 nM
CC(=O)N[C@H](C(=O)NC(C)(C)C(=O)N[C@@H](Cc1ccccc1)C(=O)N[C@H]1CSCSC[C@@H](C(=O)N[C@H](C(=O)N[C@H](C(=O)N[C@@H](CC(=O)O)C(N)=O)[C@@H](C)O)C(C)(C)C)NC(=O)[C@H](CC(N)=O)NC(=O)[C@H](C)NC(=O)[C@H](CCCNC(=N)N)NC(=O)[C@H](CCCCN)NC1=O)[C@@H](C)O [PSM-0567] (Ac-T[Aib]FCKRANC[Tle]TD-NH2; linker 4-9 via CH2)	< 12.6 nM
C[C@@H]1NC(=O)[C@H](CCCNC(=N)N)NC(=O)[C@H](CCCCN)NC(=O)[C@@H](NC(=O)[C@H](Cc2ccc(Cl)cc2)NC(=O)C(C)(C)NC(=O)[C@@H](NC(=O)CC2CCN(C(=O)CN3CCN(CC(=O)O)CCN(CC(=O)O)CCN(CC(=O)O)CC3)CC2)[C@@H](C)O)CSSC[C@@H](C(=O)N[C@H](C(=O)N[C@H](C(N)=O)[C@@H](C)O)C(C)(C)C)NC(=O)[C@H](CC(N)=O)N(C)C1=O [PSM-0585] ({DOTA}-[X1]T[Aib][Phe(4-Cl)]CKRA[NMeN]C[Tle]T-NH2; disulfide 5-10)	12.6 to 126 nM
CCCCCC(=O)N[C@H](C(=O)NC(C)(C)C(=O)N[C@@H](Cc1ccccc1)C(=O)N[C@H]1CSSC[C@@H](C(=O)N[C@H](C(=O)N[C@H](C(=O)NCCCOCCOCCOCCCNC(=O)CCC(=O)N[C@H](CCCCNC(=O)CN2CCN(CC(=O)O)CCN(CC(=O)O)CCN(CC(=O)O)CC2)C(N)=O)[C@@H](C)O)C(C)(C)C)NC(=O)[C@H](CC(N)=O)NC(=O)C(C)(C)NC(=O)[C@H](CCCNC(=N)N)NC(=O)[C@H](CCCCN)NC1=O)[C@@H](C)O [PSM-0576] (Hexanoyl-T[Aib]FCKR[Aib]NC[Tle]T-{TtdsdLys(DOTA)NH2}; disulfide 4-9)	< 12.6 nM

Parameter requested: Kd. Apply to each item below.
1. CNCCCC[C@@H]1NC(=O)[C@@H](NC(=O)[C@H](Cc2ccc(Cl)cc2)NC(=O)C(C)(C)NC(=O)[C@@H](NC(=O)CC2CCN(C(=O)CN3CCN(CC(N)=O)CCN(CC(N)=O)CCN(CC(N)=O)CC3)CC2)[C@@H](C)O)CSSC[C@@H](C(=O)N[C@H](C(=O)N[C@H](C(N)=O)[C@@H](C)O)C(C)(C)C)NC(=O)[C@H](CC(N)=O)NC(=O)C(C)(C)NC(=O)[C@H](CCCNC(=N)NC)NC1=O [PSM-0593] (DO3AM-[X1]T[Aib][Phe(4-Cl)]C[Lys(Me)][Arg(Me)][Aib]NC[Tle]T-NH2; disulfide 5-10)
2. C[C@@H](O)[C@H](NC(=O)[C@@H](NC(=O)[C@@H]1CSSC[C@H](NC(=O)[C@H](Cc2ccc(Cl)cc2)NC(=O)C(C)(C)NC(=O)[C@@H](NC(=O)CCC(=O)NCCCOCCOCCOCCCNC(=O)CCC(=O)NCCCOCCOCCOCCCNC(=O)CCCC[C@@H]2SC[C@@H]3NC(=O)N[C@@H]32)[C@@H](C)O)C(=O)N[C@@H](CCCCN)C(=O)N[C@@H](CCCNC(=N)N)C(=O)NC(C)(C)C(=O)N[C@@H](CC(N)=O)C(=O)N1)C(C)(C)C)C(N)=O [PSM-0575] ({X11-Suc}-T[Aib][Phe(4-Cl)]CKR[Aib]NC[Tle]T-NH2; disulfide 4-9)
3. CCCC[C@H](NC(=O)[C@@H]1CSSC[C@H](NC(=O)[C@H](Cc2ccccc2)NC(=O)[C@H](C)NC(=O)[C@@H](NC(C)=O)[C@@H](C)O)C(=O)N[C@@H](CCCCN)C(=O)N[C@@H](CCCNC(=N)N)C(=O)N[C@@H](C)C(=O)N[C@@H](CC(N)=O)C(=O)N1)C(=O)N[C@H](C(=O)N[C@@H](C)C(N)=O)[C@@H](C)O [PSM-0562] (Ac-TAFCKRANC[Nle]TA-NH2; disulfide 4-9)

// result
["< 12.6 nM", "< 12.6 nM", "126 to 501 nM"]

Cited source for all entries: patent US20260083865A1
